Assay: self-splicing fitness, log relative to wild type (ln ratio); higher = more splicing; Tetrahymena group I intron in knt gene, E. coli kanamycin selection, DiMSum; sequences stand for … in CUCUCU…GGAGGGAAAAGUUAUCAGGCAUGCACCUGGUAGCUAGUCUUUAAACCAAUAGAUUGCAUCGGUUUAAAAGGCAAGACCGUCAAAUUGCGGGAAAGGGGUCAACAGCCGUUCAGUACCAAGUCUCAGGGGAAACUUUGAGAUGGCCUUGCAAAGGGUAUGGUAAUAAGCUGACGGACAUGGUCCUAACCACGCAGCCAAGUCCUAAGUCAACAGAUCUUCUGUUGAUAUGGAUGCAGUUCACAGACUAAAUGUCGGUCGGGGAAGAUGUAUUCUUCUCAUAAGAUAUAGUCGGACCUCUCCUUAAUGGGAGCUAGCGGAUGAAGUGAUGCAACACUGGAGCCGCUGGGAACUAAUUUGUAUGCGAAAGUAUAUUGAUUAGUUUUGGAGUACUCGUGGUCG;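 also: selection with 25 µg/mL kanamycin versus none on LB agar overnight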
Conditions: 30 °C
recordedMetric: self-splicing fitness (ln)
Lab note: jot down the number only; don't add units.

Prompt: Name the reported self-splicing fitness (ln) value associated with the sequence `UUGAAGCAAUAUUACGCGAU`
Response: -1.96

Prompt: Recorded self-splicing fitness (ln) for `GCAAAGCAAUAUUACGGCCG` , please?
Response: -0.0405

Prompt: Give the measured self-splicing fitness (ln) of `AGAUAGCAAUAUUACGGAGC` .
Response: -3.24

Prompt: // lookup self-splicing fitness (ln) for `AGUCAGCAAUAUUACGUGCC`
Response: -1.02

Prompt: Which self-splicing fitness (ln) value belongs to `GGAGAGCAAUAUUACGGCAG` ?
Response: -3.29

Prompt: Which self-splicing fitness (ln) is listed for `UCUAAGCAAUAUUACGUCCG` ?
Response: -0.454

Prompt: Quick check: self-splicing fitness (ln) of `CGACAGCAAUAUUACGAGGA` ?
Response: -3.91

Prompt: Which self-splicing fitness (ln) value is on record for `GGCCAGCAAUAUUACGGCAU` ?
Response: -1.13

Prompt: Please give the measured self-splicing fitness (ln) for this sequence: `GGCAAGCAAUAUUACGCAGU`
Response: -1.88

----------
Assay: self-splicing fitness, log relative to wild type (ln ratio); higher = more splicing; Tetrahymena group I intron in knt gene, E. coli kanamycin selection, DiMSum; sequences stand for … in CUCUCU…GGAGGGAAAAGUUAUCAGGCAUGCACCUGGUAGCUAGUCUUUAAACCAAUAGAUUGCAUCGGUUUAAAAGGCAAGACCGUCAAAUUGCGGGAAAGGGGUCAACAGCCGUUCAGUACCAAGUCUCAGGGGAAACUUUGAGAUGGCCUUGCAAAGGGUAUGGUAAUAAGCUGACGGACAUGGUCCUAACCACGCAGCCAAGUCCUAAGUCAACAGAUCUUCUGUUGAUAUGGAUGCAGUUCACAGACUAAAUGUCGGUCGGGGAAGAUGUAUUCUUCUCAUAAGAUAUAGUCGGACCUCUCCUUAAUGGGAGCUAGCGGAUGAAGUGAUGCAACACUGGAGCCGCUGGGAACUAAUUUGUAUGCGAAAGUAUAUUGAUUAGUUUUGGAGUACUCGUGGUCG
Conditions: 30 °C
// reported self-splicing fitness (ln) for each item listed
Lab note: record the figure alone, no unit after it.

Prompt: Suppose we examine the sequence `GCCGAGCAAUAUUACGAUUG` ; what self-splicing fitness (ln) value has been reported?
Response: -2.48

Prompt: Looking for the measured self-splicing fitness (ln) of `GAGGAGCAAUAUUACGCUUA` , can you help?
Response: -1.5

Prompt: Looking for the measured self-splicing fitness (ln) of `CUGCAGCAAUAUUACGCUAU` , can you help?
Response: -4.29

Prompt: What self-splicing fitness (ln) value was documented for this sequence, `UUUUAGCAAUAUUACGGCCA` ?
Response: -1.57

Prompt: What does the record list as self-splicing fitness (ln) for `AGGCAGCAAUAUUACGUGAU` ?
Response: -2.2

---
Prompt: What value of measured self-splicing fitness (ln) is listed for `AAUUAGCAAUAUUACGGGAG` ?
Response: -2.99

Prompt: Need self-splicing fitness (ln), item `GCCAAGCAAUAUUACGGCAA`
Response: -2.23

Prompt: GET /values?readout=self-splicing fitness (ln)&item= `GAUUAGCAAUAUUACGAUGA`
Response: -1.8

Prompt: Fill in the blank: the reported self-splicing fitness (ln) of `UAAUAGCAAUAUUACGAAAG` is ____.
Response: -1.92

Prompt: Quick check: self-splicing fitness (ln) of `CCUCAGCAAUAUUACGCGAU` ?
Response: -4.95

Prompt: Give the measured self-splicing fitness (ln) of `AGUAAGCAAUAUUACGCCUU` .
Response: -1.74

----------
Experiment: self-splicing fitness, log relative to wild type (ln ratio); higher = more splicing; Tetrahymena group I intron in knt gene, E. coli kanamycin selection, DiMSum; sequences stand for … in CUCUCU…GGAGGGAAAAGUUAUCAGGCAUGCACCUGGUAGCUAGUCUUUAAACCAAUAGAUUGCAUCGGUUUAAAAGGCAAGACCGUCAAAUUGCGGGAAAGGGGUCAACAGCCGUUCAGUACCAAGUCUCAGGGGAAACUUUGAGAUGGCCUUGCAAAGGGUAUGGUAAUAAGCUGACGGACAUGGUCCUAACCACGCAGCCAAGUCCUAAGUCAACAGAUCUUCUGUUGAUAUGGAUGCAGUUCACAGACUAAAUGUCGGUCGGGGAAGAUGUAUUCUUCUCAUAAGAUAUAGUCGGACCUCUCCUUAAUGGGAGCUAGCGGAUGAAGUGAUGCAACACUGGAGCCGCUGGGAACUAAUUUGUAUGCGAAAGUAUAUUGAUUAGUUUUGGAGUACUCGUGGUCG
Conditions: 30 °C
Listing: self-splicing fitness (ln) of selected sequences
Keep the answer to the number alone.

A selection of reference data follows.
Prompt: Consider the sequence `AACCAGCAAUAUUACGGUCU` and give its measured self-splicing fitness (ln).
Response: -0.594

Prompt: GET /values?readout=self-splicing fitness (ln)&item= `AAUCAGCAAUAUUACGGUUU`
Response: -1.35

Prompt: State the recorded self-splicing fitness (ln) for this entry: `GCCUAGCAAUAUUACGGCGG`
Response: -3.45

Here's the next entry for you.
Prompt: Data request, read-out self-splicing fitness (ln), for `UACCAGCAAUAUUACGUGAC`
Response: -3.12

----------
Assay: self-splicing fitness, log relative to wild type (ln ratio); higher = more splicing; Tetrahymena group I intron in knt gene, E. coli kanamycin selection, DiMSum; sequences stand for … in CUCUCU…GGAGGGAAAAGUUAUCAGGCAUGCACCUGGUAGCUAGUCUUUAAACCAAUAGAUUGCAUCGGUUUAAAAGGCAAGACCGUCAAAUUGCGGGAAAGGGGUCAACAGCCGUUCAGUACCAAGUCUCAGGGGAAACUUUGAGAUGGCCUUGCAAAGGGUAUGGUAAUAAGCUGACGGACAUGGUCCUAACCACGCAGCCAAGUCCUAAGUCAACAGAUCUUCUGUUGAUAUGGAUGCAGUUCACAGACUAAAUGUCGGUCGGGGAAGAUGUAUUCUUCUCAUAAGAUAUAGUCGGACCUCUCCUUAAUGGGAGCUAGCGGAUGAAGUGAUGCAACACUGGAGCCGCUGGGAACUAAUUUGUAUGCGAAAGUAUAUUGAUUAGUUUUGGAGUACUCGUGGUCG
Settings: 37 °C
recordedMetric: self-splicing fitness (ln)

Study these solved cases before continuing.
Prompt: Which self-splicing fitness (ln) is reported for this sequence? `GGGAAGCAAUAUUACGUGGU`
Response: -3.33

Prompt: Recorded self-splicing fitness (ln) of `AACGAGCAAUAUUACGCUAG` , please.
Response: -2.92

Prompt: If you can, please state the reported self-splicing fitness (ln) value of `UUGAAGCAAUAUUACGGCAG` .
Response: -0.0313

Prompt: Sample `AACAAGCAAUAUUACGUAAG` — what was its self-splicing fitness (ln)?
Response: -1.16

Prompt: Sample `UAUCAGCAAUAUUACGUUUA` — what was its self-splicing fitness (ln)?
Response: -0.0219

Prompt: So what's the measured self-splicing fitness (ln) for this one? `GUCGAGCAAUAUUACGGGGU`
Response: -1.74

Prompt: Which self-splicing fitness (ln) is listed for `UCCCAGCAAUAUUACGCGGG` ?
Response: -3.36

Prompt: GET /values?readout=self-splicing fitness (ln)&item= `CCACAGCAAUAUUACGUAGU`
Response: -2.94

Prompt: Please look up its self-splicing fitness (ln): `CAGGAGCAAUAUUACGAGUG`
Response: -1.95

Prompt: Dear colleague, I am looking for the recorded self-splicing fitness (ln) of the following sequence: `GGAUAGCAAUAUUACGCAAU`
Response: -0.704

Next:
Prompt: Returns the measured self-splicing fitness (ln) for the input sequence. Input: `UAUGAGCAAUAUUACGACGC`
Response: -1.38

Prompt: Which measured self-splicing fitness (ln) value corresponds to `GGGCAGCAAUAUUACGAUGA` ?
Response: -0.649
